tested on: 422866-222-R5-J1-PDC complex spheroid viability; assay: Anticancer human tumor 422866-222-R5-J1-PDC patient-derived pancreatic adenocarcinoma cell line growth inhibition [POLQ]; details: second compound 10 µM; first compound 0.1 µM; stronger effect = lower value
Record form. Attribute: viability, T/C. Fill in for each entry.
Lab book: enter the figure in %, no units written.

Q: For COc1cccc2c1C(=O)c1c(O)c3c(c(O)c1C2=O)CC(O)(C(=O)CO)CC3OC1CC(N)C(O)C(C)O1 (stereo not drawn) + Cc1cccc(N(C)C(=O)C2C(O)CCN2c2nc(C)cc(C(F)(F)F)c2C#N)c1 , write its viability, T/C.
A: 53

Q: For COc1cc2cc(C(=O)CCC(=O)O)sc2cc1OC + Nc1ccc(C#CCN(C(=O)Cc2ncc(C(F)(F)F)cc2C(F)(F)F)c2ccc(F)cc2)nn1 , write its viability, T/C.
A: 91.4

Q: For CCCS(=O)(=O)Nc1ccc(F)c(C(=O)c2c[nH]c3ncc(-c4ccc(Cl)cc4)cc23)c1F + Cc1cccc(N(C)C(=O)C2C(O)CCN2c2nc(C)cc(C(F)(F)F)c2C#N)c1 , write its viability, T/C.
A: 97

----------
test system: 422866-222-R5-J1-PDC complex spheroid viability; assay: Anticancer human tumor 422866-222-R5-J1-PDC cell line growth inhibition [POLQ]; settings: second compound 10 µM; first compound 0.1 µM; stronger effect = lower value;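 note: spheroids exposed to compounds for one week before readout; percent of DMSO vehicle wells luminescence so 100% = untreated viability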
Record form. Attribute: viability, T/C. Fill in for each entry.
Lab book: enter the figure in %, no units written.

Q: For O=C(c1cc(Cc2n[nH]c(=O)c3ccccc23)ccc1F)N1CCN(C(=O)C2CC2)CC1 + Cc1cccc(N(C)C(=O)C2C(O)CCN2c2nc(C)cc(C(F)(F)F)c2C#N)c1 , write its viability, T/C.
A: 107

Q: For COc1cc(C2c3cc4c(cc3C(OC3OC5COC(C)OC5C(O)C3O)C3COC(=O)C23)OCO4)cc(OC)c1O (stereo not given) + COC1C(OC(N)=O)C(O)C(Oc2ccc3c(O)c(NC(=O)c4ccc(O)c(CC=C(C)C)c4)c(=O)oc3c2C)OC1(C)C , write its viability, T/C.
A: 101

Q: For CC(C)n1c(=O)n(C)c2cnc3cc(F)c(-c4ccc(OCCCN5CCCCC5)nc4)cc3c21 + Nc1ccc(C#CCN(C(=O)Cc2ncc(C(F)(F)F)cc2C(F)(F)F)c2ccc(F)cc2)nn1 , write its viability, T/C.
A: 110

Q: For COc1ccc([C@@H](O)c2cc(-c3ncnc4cc(N5CCOCC5)ccc34)c(F)cc2Cl)nn1 + COC1C(OC(N)=O)C(O)C(Oc2ccc3c(O)c(NC(=O)c4ccc(O)c(CC=C(C)C)c4)c(=O)oc3c2C)OC1(C)C , write its viability, T/C.
A: 99.5

Q: For O=C(c1cc(Cc2n[nH]c(=O)c3ccccc23)ccc1F)N1CCN(C(=O)C2CC2)CC1 + COC1C(OC(N)=O)C(O)C(Oc2ccc3c(O)c(NC(=O)c4ccc(O)c(CC=C(C)C)c4)c(=O)oc3c2C)OC1(C)C , write its viability, T/C.
A: 30.9

----------
Test system: 422866-222-R5-J1-PDC complex spheroid viability
Experiment: Anticancer human tumor 422866-222-R5-J1-PDC cell line growth inhibition [POLQ];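 note: spheroids exposed to compounds for one week before readout; percent of DMSO vehicle wells luminescence so 100% = untreated viability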
Details: second compound 10 µM; first compound 0.1 µM; stronger effect = lower value
Description: Multicellular complex tumor spheroid response to Polymerase (POL) inhibitors (novobiocin, ART-558, RP6685) in combination with a variety of drugs and investigational agents in selected tumor cell lines The POL inhibitors (novobiocin, ART-558, and RP6685) were evaluated both individually and in combination with standard of care and investigational anticancer small molecules within a complex spheroid model of solid tumors. . […]
One threshold, 90%, splits the recorded viability, T/C values: lower ones are yes (1), equal or higher ones are no (0).

Q: Consider the compound O=C(Nc1ccc(O)c(NS(=O)(=O)c2ccc(F)cc2)c1)c1ccc(-c2ccccc2)cc1 + Cc1cccc(N(C)C(=O)C2C(O)CCN2c2nc(C)cc(C(F)(F)F)c2C#N)c1 . Is its viability, T/C strictly less than 90%?
A: yes (1)

Q: Consider the compound CCc1cc2c(N3CCc4c(cc(Cn5ccnc5)cc4-c4cn(C)nc4C(F)(F)F)C3=O)cc(C)nc2c(OC)n1 + COC1C(OC(N)=O)C(O)C(Oc2ccc3c(O)c(NC(=O)c4ccc(O)c(CC=C(C)C)c4)c(=O)oc3c2C)OC1(C)C . Is its viability, T/C strictly less than 90%?
A: yes (1)

Q: Consider the compound C=CCn1c(=O)c2cnc(Nc3ccc(N4CCN(C)CC4)cc3)nc2n1-c1cccc(C(C)(C)O)n1 + COC1C(OC(N)=O)C(O)C(Oc2ccc3c(O)c(NC(=O)c4ccc(O)c(CC=C(C)C)c4)c(=O)oc3c2C)OC1(C)C . Is its viability, T/C strictly less than 90%?
A: yes (1)

Q: Consider the compound CC1COCCN1c1cc(-c2ccnn2C)c2ccnc(-c3ccn[nH]3)c2n1 (stereo not given) + COC1C(OC(N)=O)C(O)C(Oc2ccc3c(O)c(NC(=O)c4ccc(O)c(CC=C(C)C)c4)c(=O)oc3c2C)OC1(C)C . Is its viability, T/C strictly less than 90%?
A: yes (1)

Q: Consider the compound CC(C)n1c(=O)n(C)c2cnc3cc(F)c(-c4ccc(OCCCN5CCCCC5)nc4)cc3c21 + COC1C(OC(N)=O)C(O)C(Oc2ccc3c(O)c(NC(=O)c4ccc(O)c(CC=C(C)C)c4)c(=O)oc3c2C)OC1(C)C . Is its viability, T/C strictly less than 90%?
A: yes (1)

Q: Consider the compound O=c1[nH]cc(F)c(=O)[nH]1 + COC1C(OC(N)=O)C(O)C(Oc2ccc3c(O)c(NC(=O)c4ccc(O)c(CC=C(C)C)c4)c(=O)oc3c2C)OC1(C)C . Is its viability, T/C strictly less than 90%?
A: no (0)

Q: Consider the compound CCc1cc2c(N3CCc4c(cc(Cn5ccnc5)cc4-c4cn(C)nc4C(F)(F)F)C3=O)ccnc2c(OC)n1 + Cc1cccc(N(C)C(=O)C2C(O)CCN2c2nc(C)cc(C(F)(F)F)c2C#N)c1 . Is its viability, T/C strictly less than 90%?
A: no (0)

Q: Consider the compound CNCc1ccc(-c2[nH]c3cc(F)cc4c3c2CCNC4=O)cc1 + Cc1cccc(N(C)C(=O)C2C(O)CCN2c2nc(C)cc(C(F)(F)F)c2C#N)c1 . Is its viability, T/C strictly less than 90%?
A: no (0)

Q: Consider the compound C#Cc1c(F)ccc2cc(O)cc(-c3ncc4c(N5CC6CCC(C5)N6)nc(OCC56CCCN5CC(F)C6)nc4c3F)c12 (stereo not given) + COC1C(OC(N)=O)C(O)C(Oc2ccc3c(O)c(NC(=O)c4ccc(O)c(CC=C(C)C)c4)c(=O)oc3c2C)OC1(C)C . Is its viability, T/C strictly less than 90%?
A: yes (1)

----------
System: 422866-222-R5-J1-PDC complex spheroid viability
Experiment: Anticancer human tumor 422866-222-R5-J1-PDC cell line growth inhibition [POLQ];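 note: spheroids exposed to compounds for one week before readout; percent of DMSO vehicle wells luminescence so 100% = untreated viability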
Conditions: second compound 1 µM; first compound 0.01 µM; stronger effect = lower value
Protocol: Multicellular complex tumor spheroid response to Polymerase (POL) inhibitors (novobiocin, ART-558, RP6685) in combination with a variety of drugs and investigational agents in selected tumor cell lines The POL inhibitors (novobiocin, ART-558, and RP6685) were evaluated both individually and in combination with standard of care and investigational anticancer small molecules within a complex spheroid model of solid tumors. . […]
One threshold, 90%, splits the recorded viability, T/C values: lower ones are Y, equal or higher ones are N.

Q: Consider the molecule C=CCn1c(=O)c2cnc(Nc3ccc(N4CCN(C)CC4)cc3)nc2n1-c1cccc(C(C)(C)O)n1 + Cc1cccc(N(C)C(=O)C2C(O)CCN2c2nc(C)cc(C(F)(F)F)c2C#N)c1 . Is its viability, T/C strictly less than 90%?
A: Y

Q: Consider the molecule Cn1ncnc1[C@H]1c2n[nH]c(=O)c3cc(F)cc(c23)N[C@@H]1c1ccc(F)cc1 + Nc1ccc(C#CCN(C(=O)Cc2ncc(C(F)(F)F)cc2C(F)(F)F)c2ccc(F)cc2)nn1 . Is its viability, T/C strictly less than 90%?
A: N

Q: Consider the molecule COc1cccc(OCCCN)c1-c1cc(Nc2cnc(C#N)cn2)n[nH]1 + Nc1ccc(C#CCN(C(=O)Cc2ncc(C(F)(F)F)cc2C(F)(F)F)c2ccc(F)cc2)nn1 . Is its viability, T/C strictly less than 90%?
A: Y

Q: Consider the molecule CC[C@@]1(O)C(=O)OCc2c1cc1n(c2=O)Cc2cc3c(CN(C)C)c(O)ccc3nc2-1 + Cc1cccc(N(C)C(=O)C2C(O)CCN2c2nc(C)cc(C(F)(F)F)c2C#N)c1 . Is its viability, T/C strictly less than 90%?
A: Y

Q: Consider the molecule CCc1c2c(nc3ccc(O)cc13)-c1cc3c(c(=O)n1C2)COC(=O)[C@]3(O)CC + Nc1ccc(C#CCN(C(=O)Cc2ncc(C(F)(F)F)cc2C(F)(F)F)c2ccc(F)cc2)nn1 . Is its viability, T/C strictly less than 90%?
A: Y

Q: Consider the molecule CCc1c2c(nc3ccc(O)cc13)-c1cc3c(c(=O)n1C2)COC(=O)[C@]3(O)CC + COC1C(OC(N)=O)C(O)C(Oc2ccc3c(O)c(NC(=O)c4ccc(O)c(CC=C(C)C)c4)c(=O)oc3c2C)OC1(C)C . Is its viability, T/C strictly less than 90%?
A: Y

Q: Consider the molecule C=CCn1c(=O)c2cnc(Nc3ccc(N4CCN(C)CC4)cc3)nc2n1-c1cccc(C(C)(C)O)n1 + COC1C(OC(N)=O)C(O)C(Oc2ccc3c(O)c(NC(=O)c4ccc(O)c(CC=C(C)C)c4)c(=O)oc3c2C)OC1(C)C . Is its viability, T/C strictly less than 90%?
A: N

Q: Consider the molecule Cn1ncnc1[C@H]1c2n[nH]c(=O)c3cc(F)cc(c23)N[C@@H]1c1ccc(F)cc1 + COC1C(OC(N)=O)C(O)C(Oc2ccc3c(O)c(NC(=O)c4ccc(O)c(CC=C(C)C)c4)c(=O)oc3c2C)OC1(C)C . Is its viability, T/C strictly less than 90%?
A: Y

Q: Consider the molecule CCc1c2c(nc3ccc(O)cc13)-c1cc3c(c(=O)n1C2)COC(=O)[C@]3(O)CC + Cc1cccc(N(C)C(=O)C2C(O)CCN2c2nc(C)cc(C(F)(F)F)c2C#N)c1 . Is its viability, T/C strictly less than 90%?
A: Y

Q: Consider the molecule COc1cccc(OCCCN)c1-c1cc(Nc2cnc(C#N)cn2)n[nH]1 + Cc1cccc(N(C)C(=O)C2C(O)CCN2c2nc(C)cc(C(F)(F)F)c2C#N)c1 . Is its viability, T/C strictly less than 90%?
A: Y
